Answer each item with its documented Ki.
target: NS3 (Hepatitis C virus); assay: Binding affinity against Hepatitis C virus NS3 protease; set-up: species or system Hepacivirus hominis
Sequence (A3EZJ3 whole entry): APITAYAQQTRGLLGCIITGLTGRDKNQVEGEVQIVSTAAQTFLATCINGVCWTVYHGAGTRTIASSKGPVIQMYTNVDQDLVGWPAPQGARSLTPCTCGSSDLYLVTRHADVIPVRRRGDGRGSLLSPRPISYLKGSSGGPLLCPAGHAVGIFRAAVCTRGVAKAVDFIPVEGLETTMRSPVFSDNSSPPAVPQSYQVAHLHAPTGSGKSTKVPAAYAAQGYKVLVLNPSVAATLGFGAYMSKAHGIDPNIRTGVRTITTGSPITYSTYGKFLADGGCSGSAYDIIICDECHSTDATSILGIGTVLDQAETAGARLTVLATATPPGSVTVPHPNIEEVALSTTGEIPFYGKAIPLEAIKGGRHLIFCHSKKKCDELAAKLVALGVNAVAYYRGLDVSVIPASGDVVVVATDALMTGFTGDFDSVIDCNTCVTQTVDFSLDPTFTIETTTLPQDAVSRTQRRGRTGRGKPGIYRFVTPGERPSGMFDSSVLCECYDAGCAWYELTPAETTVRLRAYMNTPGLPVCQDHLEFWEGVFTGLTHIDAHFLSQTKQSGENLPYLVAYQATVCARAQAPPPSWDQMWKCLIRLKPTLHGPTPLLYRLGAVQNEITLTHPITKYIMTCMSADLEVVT

Report Ki for CCCN(NC(=O)[C@H]1CCCN1C(=O)[C@@H](NC(=O)[C@@H](NC(=O)[C@H](CC(=O)O)NC(=O)[C@H](CCC(=O)O)NC(=O)[C@@H](NC(=O)[C@H](CC(=O)O)NC(C)=O)[C@@H](C)O)C(C)C)C(C)C)C(=O)c1ccc(C(F)(F)F)cc1 please.
> 100 µM

GET /values?readout=Ki&item= CCCN(NC(=O)[C@H]1CCCN1C(=O)[C@@H](NC(=O)[C@@H](NC(=O)[C@H](CC(=O)O)NC(=O)[C@H](CCC(=O)O)NC(=O)[C@@H](NC(=O)[C@H](CC(=O)O)NC(C)=O)[C@@H](C)O)C(C)C)C(C)C)C(=O)c1ccc(C#N)cc1
> 100 µM

Quick one: Ki for CCCN(NC(=O)[C@H]1CCCN1C(=O)[C@@H](NC(=O)[C@@H](NC(=O)[C@H](CC(=O)O)NC(C)=O)C(C)C)C(C)C)C(=O)Oc1ccc([N+](=O)[O-])cc1 ?
7 µM

# lookup: Ki of CCCN(NC(=O)[C@H]1CCCN1C(=O)[C@@H](NC(=O)[C@@H](NC(=O)[C@H](CC(=O)O)NC(=O)[C@H](CCC(=O)O)NC(=O)[C@@H](NC(=O)[C@H](CC(=O)O)NC(C)=O)[C@@H](C)O)C(C)C)C(C)C)C(=O)c1ccc(S(=O)(=O)F)cc1
> 100 µM

Look up Ki for this compound: CCCN(NC(=O)[C@H]1CCCN1C(=O)[C@@H](NC(=O)[C@@H](NC(=O)[C@H](CC(=O)O)NC(=O)[C@H](CCC(=O)O)NC(=O)[C@@H](NC(=O)[C@H](CC(=O)O)NC(C)=O)[C@@H](C)O)C(C)C)C(C)C)C(=O)OC(C)(C)C(Cl)(Cl)Cl
> 100 µM
